Molecular target: neurokinin-1 (NK-1) receptor (Homo sapiens, UniProt P25103)
Construct: a human glioblastoma-astrocytoma cell line that endogenously expresses the neurokinin-1 (NK-1) receptor; endogenous in cells; host or cells: U373 human glioblastoma-astrocytoma cells (membranes)
Sequence (P25103 whole entry): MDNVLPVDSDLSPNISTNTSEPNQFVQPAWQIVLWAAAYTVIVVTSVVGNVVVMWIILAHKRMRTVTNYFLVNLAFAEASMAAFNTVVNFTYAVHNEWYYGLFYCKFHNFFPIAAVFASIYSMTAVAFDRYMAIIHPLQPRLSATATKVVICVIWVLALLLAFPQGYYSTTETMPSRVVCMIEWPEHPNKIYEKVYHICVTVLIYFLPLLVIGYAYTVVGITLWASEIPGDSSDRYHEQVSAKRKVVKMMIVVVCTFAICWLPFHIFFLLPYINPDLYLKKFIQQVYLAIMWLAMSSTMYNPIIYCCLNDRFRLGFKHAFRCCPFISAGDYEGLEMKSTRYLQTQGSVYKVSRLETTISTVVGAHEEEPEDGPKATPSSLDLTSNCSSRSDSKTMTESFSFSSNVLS
Experiment: NK-1 Binding assay ([125I] Substance P competition, U373 cell membranes)
Details: Table 2; U373 membranes, [125I] Substance P displacement; read-out: NK-1 IC50
pIC50: −log10 of the molar value.
assay_readout: pIC50

smi: O=C(OCc1ccccc1)c1cccc(-c2cc(COCC3(c4ccccc4)CCNCC3)cc(C(F)(F)F)c2)c1
observed_measurement: < 6.52

Please report the recorded pIC50 for `CN1CCC(COCc2cc(-c3ccc(F)cc3)cc(C(F)(F)F)c2)(c2ccc(F)cc2)CC1` .
7.00 to 11.00

Cool, now `Cc1cc(C#N)ccc1-c1cc(COCC2(c3ccccc3)CCNCC2)cc(C(F)(F)F)c1`
7.00 to 11.00

Cool, now `COC(=O)c1ccc(-c2cc(COCC3(c4ccccc4)CCNCC3)cc(C(F)(F)F)c2)cc1`
7.00 to 11.00
